FYI, the data here is from paper PMC9861623.

Test: Thermogravimetric (TG) analysis, thermal stability
Format: physicochemical
Conditions: TG/DTG, air atmosphere, 10 °C·min^−1
endpoint: Td max, temperature of the fastest mass loss of the sample (°C)

>  <molecule>
COc1cc(/C=C/C(=O)O)ccc1O [Ferulic acid]

>  <reading>
251.2

$$$$
>  <molecule>
CCCOC(=O)[C@@H]1CCCN1.COc1cc(/C=C/C(=O)O)ccc1O [PPr[FA], L-proline propyl ester ferulate]

>  <reading>
148.7

$$$$
>  <molecule>
CCCOC(=O)[C@@H](N)CC(C)C.COc1cc(/C=C/C(=O)O)ccc1O [LPr[FA], L-leucine propyl ester ferulate]

>  <reading>
156.0

$$$$
>  <molecule>
CCCOC(=O)CN.COc1cc(/C=C/C(=O)O)ccc1O [GPr[FA], glycine propyl ester ferulate]

>  <reading>
145.3

$$$$

====

# maps each entry to its Antioxidant activity %RSA
Experiment: DPPH radical scavenging assay of the compounds
Conditions: molar ratio antioxidant:DPPH 1.0, 10 min

>  <compound>
CCCOC(=O)[C@@H]1CCCN1.COc1cc(/C=C/C(=O)O)ccc1O [PPr[FA], L-proline propyl ester ferulate]

>  <readout_unit>
b %RSA

>  <Antioxidant activity %RSA>
79.6

$$$$
>  <compound>
CCCOC(=O)[C@@H](N)CC(C)C.COc1cc(/C=C/C(=O)O)ccc1O [LPr[FA], L-leucine propyl ester ferulate]

>  <readout_unit>
b %RSA

>  <Antioxidant activity %RSA>
79.5

$$$$
>  <compound>
CCCOC(=O)CN.COc1cc(/C=C/C(=O)O)ccc1O [GPr[FA], glycine propyl ester ferulate]

>  <readout_unit>
b %RSA

>  <Antioxidant activity %RSA>
78.0

$$$$
>  <compound>
COc1cc(/C=C/C(=O)O)ccc1O

>  <readout_unit>
b %RSA

>  <Antioxidant activity %RSA>
73.2

$$$$

====

Collected Td onset, the onset of decomposition values appear next to each entry.
Assay: Thermogravimetric (TG) analysis, thermal stability
Type: physicochemical
Conditions: TG, air atmosphere, 10 °C·min^−1

>  <molecule>
CCCOC(=O)CN.COc1cc(/C=C/C(=O)O)ccc1O [GPr[FA], glycine propyl ester ferulate]

>  <readout_unit>
°C

>  <Td onset, the onset of decomposition>
129.6

$$$$
>  <molecule>
CCCOC(=O)[C@@H](N)CC(C)C.COc1cc(/C=C/C(=O)O)ccc1O [LPr[FA], L-leucine propyl ester ferulate]

>  <readout_unit>
°C

>  <Td onset, the onset of decomposition>
126.0

$$$$
>  <molecule>
CCCOC(=O)[C@@H]1CCCN1.COc1cc(/C=C/C(=O)O)ccc1O [PPr[FA], L-proline propyl ester ferulate]

>  <readout_unit>
°C

>  <Td onset, the onset of decomposition>
122.8

$$$$
>  <molecule>
COc1cc(/C=C/C(=O)O)ccc1O

>  <readout_unit>
°C

>  <Td onset, the onset of decomposition>
217.0

$$$$
